This collection of values is drawn from patent US8802679B2.

Could you please report measured pIC50 for the items listed next?
molecular target: rat VAP-1 enzyme (SSAO) (Rattus norvegicus (Rat))
Sequence (O08590 whole entry): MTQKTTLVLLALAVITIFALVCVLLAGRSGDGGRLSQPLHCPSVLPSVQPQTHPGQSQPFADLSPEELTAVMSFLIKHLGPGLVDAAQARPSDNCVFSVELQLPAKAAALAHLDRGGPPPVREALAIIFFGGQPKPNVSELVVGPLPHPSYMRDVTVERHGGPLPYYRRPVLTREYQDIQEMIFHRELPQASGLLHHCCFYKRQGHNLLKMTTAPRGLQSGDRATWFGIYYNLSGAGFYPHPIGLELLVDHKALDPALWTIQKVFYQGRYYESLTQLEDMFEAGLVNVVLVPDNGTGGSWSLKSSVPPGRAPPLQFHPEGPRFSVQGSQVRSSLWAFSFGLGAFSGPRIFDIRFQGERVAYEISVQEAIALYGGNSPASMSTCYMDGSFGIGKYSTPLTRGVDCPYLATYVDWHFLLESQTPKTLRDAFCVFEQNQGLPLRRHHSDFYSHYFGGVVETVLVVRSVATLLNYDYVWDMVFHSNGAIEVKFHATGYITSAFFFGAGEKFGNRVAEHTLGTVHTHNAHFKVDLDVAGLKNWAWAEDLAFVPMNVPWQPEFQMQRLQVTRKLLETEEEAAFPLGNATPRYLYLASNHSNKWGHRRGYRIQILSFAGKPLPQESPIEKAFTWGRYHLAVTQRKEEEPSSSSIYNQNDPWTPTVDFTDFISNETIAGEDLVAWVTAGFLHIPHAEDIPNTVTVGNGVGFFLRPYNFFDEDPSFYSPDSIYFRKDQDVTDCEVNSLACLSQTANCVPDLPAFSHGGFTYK
Counter-ions that a name gives are not always drawn.
Give bare numbers, as −log10 of the molar value.

Look over these answered cases.
compound | observed-measurement
CN(Cc1cccc(-c2cnc(N3CCS(=O)(=O)CC3)nc2)c1)C(=O)CN | 7.40
Cc1nc2c(s1)CN(c1ncc(-c3cccc(CN(C)C(=O)CN)c3)cn1)CC2 | 7.92
CN(Cc1cccc(-c2cnc(N3CC[C@H](F)C3)nc2)c1)C(=O)CN | 8.13
Cc1cc(/C=C/C(=O)O)cnc1N1CCN(c2ncc(-c3cccc(CN(C)C(=O)CN)c3)cn2)CC1 [Example 19, dihydrochloride] | 8.16
CN(Cc1cccc(-c2cnc(N3CCC(N4CCOCC4)CC3)nc2)c1)C(=O)CN | 7.68
CN(Cc1cccc(-c2cnc(N3CCN(c4ncc(/C=C/C(=O)O)cc4Cl)CC3)nc2)c1)C(=O)CN | 7.68

For every item below, please supply its pIC50.
1. Cc1ncccc1N1CCN(c2ncc(-c3cccc(CN(C)C(=O)CN)c3)cn2)CC1
2. CN(Cc1cccc(-c2cnc(N3CCCC3)nc2)c1)C(=O)CN

1. 7.92
2. 8.44

----------
Structures can show the parent of a compound that is named as a salt.
Entries with reported pIC50 on human VAP-1 enzyme (SSAO) (Homo sapiens (Human), UniProt Q16853)
Sequence (Q16853 whole entry): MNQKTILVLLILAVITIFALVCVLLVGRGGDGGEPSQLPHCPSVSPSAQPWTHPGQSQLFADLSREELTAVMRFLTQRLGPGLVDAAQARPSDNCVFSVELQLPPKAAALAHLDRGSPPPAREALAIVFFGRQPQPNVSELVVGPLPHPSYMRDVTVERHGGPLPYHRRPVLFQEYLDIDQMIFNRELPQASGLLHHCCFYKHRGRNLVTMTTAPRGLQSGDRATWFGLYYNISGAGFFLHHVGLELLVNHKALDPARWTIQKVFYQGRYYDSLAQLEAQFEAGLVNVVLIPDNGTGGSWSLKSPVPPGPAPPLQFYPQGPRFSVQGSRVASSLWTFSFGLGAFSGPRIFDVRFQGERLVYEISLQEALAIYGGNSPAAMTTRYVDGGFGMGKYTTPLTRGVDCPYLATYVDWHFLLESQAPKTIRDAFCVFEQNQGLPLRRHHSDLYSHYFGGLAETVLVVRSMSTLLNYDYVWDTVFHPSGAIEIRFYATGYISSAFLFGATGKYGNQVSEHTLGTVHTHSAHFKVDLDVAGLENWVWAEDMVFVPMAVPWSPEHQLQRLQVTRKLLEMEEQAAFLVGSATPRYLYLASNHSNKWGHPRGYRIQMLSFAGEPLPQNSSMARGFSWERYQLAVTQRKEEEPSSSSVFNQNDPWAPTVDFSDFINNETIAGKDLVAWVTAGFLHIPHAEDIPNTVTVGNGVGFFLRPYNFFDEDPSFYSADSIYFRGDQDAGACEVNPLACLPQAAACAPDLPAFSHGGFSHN
Numbers only, as −log10 of the molar value.

Record excerpt, results attached:
compound | pIC50
CN(Cc1cccc(-c2cnc(N3CCN(c4ncc(/C=C/C(=O)O)cc4Cl)CC3)nc2)c1)C(=O)CN [Example 33] | 7.51
CN(Cc1cccc(-c2cnc(N3CCN(c4ccc(C(=O)O)cc4Cl)CC3)nc2)c1)C(=O)CN [Example 263, dihydrochloride] | 7.60
CN(Cc1cccc(-c2cnc(N3CCOCC3)nc2)c1)C(=O)CN [Example 69, L-tartrate] | 7.49
Cc1cc(/C=C/C(=O)O)cnc1N1CCN(c2ncc(-c3cccc(CN(C)C(=O)CN)c3)cn2)CC1 [Example 19, dihydrochloride] | 8.16
Cc1cccnc1N1CCN(c2ncc(-c3cccc(CN(C)C(=O)CN)c3)cn2)CC1 [Example 3, L-tartrate] | 7.49

Hello, I would appreciate it if you could give pIC50 for each entry below.
1. CN(Cc1cccc(-c2cnc(N3CC=C(c4cccnc4)CC3)nc2)c1)C(=O)CN [Ex 191]
2. CN(Cc1cccc(-c2cnc(N3CCC(c4cccnc4)CC3)nc2)c1)C(=O)CN [Ex 190]

1: 8.15; 2: 7.64

What pIC50 value was documented for this compound, CN(Cc1cccc(-c2cnc(N3CCC(N4CCOCC4)CC3)nc2)c1)C(=O)CN [Example 51] ?
7.32

----------
Record set of pIC50 for target or system human VAP-1 enzyme (SSAO) (Homo sapiens (Human)).
Numbers only, as −log10 of the molar value.

As a guide, the following entries are already answered.
compound | target-system | pIC50
CN(Cc1cccc(-c2cnc(N3CC[C@H](F)C3)nc2)c1)C(=O)CN [Example 16] | human VAP-1 enzyme (SSAO) (Homo sapiens (Human)) | 7.31
Cc1ncccc1N1CCN(c2ncc(-c3cccc(CN(C)C(=O)CN)c3)cn2)CC1 [Ex 91] | human VAP-1 enzyme (SSAO) (Homo sapiens (Human)) | 7.74
CN(Cc1cccc(-c2cnc(N3CCN(c4ccc(C#N)nc4)CC3)nc2)c1)C(=O)CN [Example 261, L-tartrate] | human VAP-1 enzyme (SSAO) (Homo sapiens (Human)) | 7.77
CN(Cc1cccc(-c2cnc(N3CCOC(CO)C3)nc2)c1)C(=O)CN (stereo not drawn) [Ex 79] | human VAP-1 enzyme (SSAO) (Homo sapiens (Human)) | 7.18
CN(Cc1cccc(-c2cnc(N3CCS(=O)(=O)CC3)nc2)c1)C(=O)CN [Ex 216] | human VAP-1 enzyme (SSAO) (Homo sapiens (Human)) | 7.05

Next item in the queue.
Would you kindly share the measured pIC50 for CN(Cc1cccc(-c2cnc(N3Cc4cccnc4C3)nc2)c1)C(=O)CN [Ex 95] ?
7.96

----------
Counter-ions that a name gives are not always drawn.
// endpoint IC50 / system rat VAP-1 enzyme (SSAO) (Rattus norvegicus (Rat))
Give bare numbers, in nM.

compound | unit-symbol | IC50
CN(Cc1cccc(-c2cnc(N3CCN(c4ccc(C(=O)O)cc4Cl)CC3)nc2)c1)C(=O)CN [Example 263, dihydrochloride] | nM | 15
CN(Cc1cccc(-c2cnc(N3CCOC(CO)C3)nc2)c1)C(=O)CN (centres unmarked) [Ex 79] | nM | 34
CN(Cc1cccc(-c2cnc(N3Cc4cccnc4C3)nc2)c1)C(=O)CN [Ex 95] | nM | 5.8
CN(Cc1cccc(-c2cnc(N3CCC(c4cccnc4)CC3)nc2)c1)C(=O)CN [Ex 190] | nM | 19
CN(Cc1cccc(-c2cnc(N3CCN(c4ccc(C#N)nc4)CC3)nc2)c1)C(=O)CN [Example 261, L-tartrate] | nM | 21
CN(Cc1cccc(-c2cnc(N3CCC(O)CC3)nc2)c1)C(=O)CN [Ex 84] | nM | 15
Cc1cccnc1N1CCN(c2ncc(-c3cccc(CN(C)C(=O)CN)c3)cn2)CC1 [Example 3, L-tartrate] | nM | 22

Continue with the next compound.
Reported IC50, compound CN(Cc1cccc(-c2cnc(N3CCOCC3)nc2)c1)C(=O)CN [Example 69, L-tartrate] : ____
9.8
